- System: SF-539 CNS
- Measurement Description: NCI-60 one-dose screen, 48 h
- Reported Conditions: 10 µM unless noted
Compounds without any hit were thinned out: in the full panel of roughly 83,000, 20% have a hit. Activity calls are given as the source filed them. Rule for the calls: active = growth percent below 10; inactive = the rest.
Parameter call: string, one of Y for active, N for inactive

Query :: Any idea what this test logged for Cc1cc(Cl)nc(N(CCCNc2ccnc3cc(Cl)ccc23)Cc2ccco2)n1 ?
Result :: N

Query :: Any idea what this test logged for c1ccc(CN2C(c3ccccc3)=Nc3ccccc3C2c2c[nH]c3ccccc23)cc1 (centres undefined) ?
Result :: N

Query :: Any idea what this test logged for CC(C)(C)c1[nH]nc2c1C(c1cc3ccccc3[nH]c1=O)Nc1cc(C(=O)OCc3ccccc3)ccc1N2 (centres undefined) ?
Result :: N

Query :: Any idea what this test logged for Clc1ccc2[nH]cc(-c3nc(-c4c[nH]c5ncccc45)cs3)c2c1 ?
Result :: N

Query :: Any idea what this test logged for OCCNc1nc(Nc2ccc(Cl)c(Cl)c2)nc2ccccc12 ?
Result :: N

Query :: Any idea what this test logged for OCC12CCCC(CO)(COC1)C2O (centres undefined) ?
Result :: N

Query :: Any idea what this test logged for Fc1ccc2c(c1)c(-c1nc(-c3c[nH]c4ncccc34)cs1)cn2CCCN1CCCCC1 ?
Result :: N

Query :: Any idea what this test logged for COc1ccc(OCC(CO)N2CCN(c3ccccc3)CC2)cc1 (centres undefined) ?
Result :: N

Query :: Any idea what this test logged for COC(=O)C(Cc1ccccc1)n1cc(COc2nc(Cl)nc(Nc3ccc(Cl)cc3)n2)nn1 (centres undefined) ?
Result :: N

Query :: Any idea what this test logged for CCN1CCN(C(=O)[C@@]2(C)CC[C@]3(C)CC[C@]4(C)C(=CC(=O)[C@@H]5[C@@]6(C)CC[C@H](OC7C[C@@H](O)[C@@H](O)C(C)O7)C(C)(C)[C@@H]6CC[C@]54C)[C@@H]3C2)CC1 (some centres undefined) ?
Result :: Y

Query :: Any idea what this test logged for NS(=O)(=O)c1ccc(CCNC(=O)/C=C/c2ccc(Cl)cc2)cc1 ?
Result :: N

Query :: Any idea what this test logged for Cc1cccc(C)c1NC(=O)CSC(=S)N1CCN(CCOCCO)CC1 ?
Result :: N

Query :: Any idea what this test logged for C/C(=N\Nc1cc(C)c2cc(C)ccc2n1)c1ccccn1 ?
Result :: Y

Query :: Any idea what this test logged for O=C1c2ccccc2NC(c2cn(-c3ccccc3)nc2-c2cccnc2)N1Cc1ccccc1 (centres undefined) ?
Result :: N

Query :: Any idea what this test logged for O=C1NC(=Nc2ccc(S(=O)(=O)Nc3nccs3)cc2)S/C1=C\c1coc2ccccc2c1=O ?
Result :: N

Query :: Any idea what this test logged for C=C(C)[C@@H]1CC[C@]2(/C=N/Nc3ccncc3)CC[C@]3(C)[C@H](CC[C@@H]4[C@@]5(C)CCCNC(C)(C)[C@@H]5CC[C@]43C)[C@@H]12 ?
Result :: N

Query :: Any idea what this test logged for Cc1cccc(C)c1NCc1nc(-c2ccccc2)n[nH]1 ?
Result :: N

Query :: Any idea what this test logged for CCC(=O)c1c(C)[nH]c(C)c1C ?
Result :: N

Query :: Any idea what this test logged for CC1(C)C=CC[C@]2(C)[C@H]3CC[C@@H]4[C@H]5[C@H](C(=O)/C=C/c6cccnc6)CC[C@]5(CO)CC[C@@]4(C)[C@]3(C)CC[C@@H]12 ?
Result :: Y
